Let's look at some binders and their measured Normalized AAV9 binding capacity (%).
Molecular target: AAV9 viral particles (adeno-associated virus 9)
Test: SPR (Biacore), polypeptide amine-coupled to CM5, AAV9 analyte; response normalized to SEQ ID NO:80
VALUE KIND: Normalized AAV9 binding capacity (%)

BINDER: vh328 (SEQ ID NO:119) (VHH) VHH: QVQLQQSGGGSVQAGGSLRLSCTISGRTLSDYTMGWFRQRPGKEREFVAAISWSGAYTKYQDSVKGRFTISRDNAKNTVYLQMNSLKPEDTAVYYCAAGPTGLLSKKATPADYDYWGQGTQVTVSS
RESULT: 110%
--
BINDER: vh280 (SEQ ID NO:133) (VHH) VHH: QVQLQQSGGGSVQAGGSLRLSCTISGRTLSDYTMGWFRQRPGKEREFVAAISWSGAYTKYADSVKGRFTISRDNAKNTVYLQMNNLKPEDTAVYYCAAGPTGLLSKKATPADYDYWGQGTQVTVSS
RESULT: 100%
--
BINDER: Nb329 (SEQ ID NO:127) (VHH) VHH: QVQLQQSGGGSVQAGGSLRLSCTISGRTLSDYTMGWFRQRPGKEREFVAAISWSGAYTKYADSVKGRFTISRDNAKDTVYLQMNSLKPEDTAVYYCAAGPTGLLSKKATPADYDYWGQGTQVTVSS
RESULT: 111%
--
BINDER: vh269 (SEQ ID NO:120) (VHH) VHH: QVQLQQSGGGSVQAGGSLRLSCTISGRTLSDYTMGWFRQRPGKEREFVAAISWSGAYTKYTDSVKGRFTISRDNAKNTVYLQMNSLKPEDTAVYYCAAGPTGLLSKKATPADYDYWGQGTQVTVSS
RESULT: 85%
--
BINDER: vh282 (SEQ ID NO:135) (VHH) VHH: QVQLQQSGGGSVQAGGSLRLSCTISGRTLSDYTMGWFRQRPGKEREFVAAISWSGAYTKYADSVKGRFTISRDNAKNTVYLQMNQLKPEDTAVYYCAAGPTGLLSKKATPADYDYWGQGTQVTVSS
RESULT: 88%
--
BINDER: vh330 (SEQ ID NO:132) (VHH) VHH: QVQLQQSGGGSVQAGGSLRLSCTISGRTLSDYTMGWFRQRPGKEREFVAAISWSGAYTKYADSVKGRFTISRDNAKNTVWLQMNSLKPEDTAVYYCAAGPTGLLSKKATPADYDYWGQGTQVTVSS
RESULT: 112%
--
BINDER: vh284 (SEQ ID NO:137) (VHH) VHH: QVQLQQSGGGSVQAGGSLRLSCTISGRTLSDYTMGWFRQRPGKEREFVAAISWSGAYTKYADSVKGRFTISRDNAKNTVYLQMNSLKPEDTAAYYCAAGPTGLLSKKATPADYDYWGQGTQVTVSS
RESULT: 109%
--
BINDER: Nb276 (SEQ ID NO:128) (VHH) VHH: QVQLQQSGGGSVQAGGSLRLSCTISGRTLSDYTMGWFRQRPGKEREFVAAISWSGAYTKYADSVKGRFTISRDNAKNTVLLQMNSLKPEDTAVYYCAAGPTGLLSKKATPADYDYWGQGTQVTVSS
RESULT: 92%
--
BINDER: vh275 (SEQ ID NO:126) (VHH) VHH: QVQLQQSGGGSVQAGGSLRLSCTISGRTLSDYTMGWFRQRPGKEREFVAAISWSGAYTKYADSVKGRFTISRDNAKQTVYLQMNSLKPEDTAVYYCAAGPTGLLSKKATPADYDYWGQGTQVTVSS
RESULT: 94%
